Ref: patent US20160347750A1

# target_entity: PLK1 (Homo sapiens, UniProt P53350)
# Sequence (P53350 whole entry): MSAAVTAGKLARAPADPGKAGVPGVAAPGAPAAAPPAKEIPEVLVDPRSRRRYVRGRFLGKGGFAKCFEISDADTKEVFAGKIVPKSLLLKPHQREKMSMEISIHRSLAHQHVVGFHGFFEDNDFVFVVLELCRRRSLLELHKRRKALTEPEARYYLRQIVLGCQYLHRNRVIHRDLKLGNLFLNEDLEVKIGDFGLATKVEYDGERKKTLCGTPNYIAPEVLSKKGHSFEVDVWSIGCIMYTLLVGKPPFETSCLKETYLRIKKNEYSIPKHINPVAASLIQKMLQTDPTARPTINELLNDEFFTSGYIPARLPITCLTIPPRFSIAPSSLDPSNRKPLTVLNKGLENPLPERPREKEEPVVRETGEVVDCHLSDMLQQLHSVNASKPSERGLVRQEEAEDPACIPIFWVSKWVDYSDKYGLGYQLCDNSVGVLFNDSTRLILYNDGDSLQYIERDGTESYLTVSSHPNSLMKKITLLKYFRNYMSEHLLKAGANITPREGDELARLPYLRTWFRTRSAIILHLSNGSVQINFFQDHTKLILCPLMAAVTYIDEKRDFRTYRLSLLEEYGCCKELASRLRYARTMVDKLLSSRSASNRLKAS
pIC50: −log10 of the molar value.
measurement_name: pIC50

CC[C@@H]1C(=O)N(C)c2cnc(Nc3ccc(C(=O)NC4CCN(C)CC4)cc3)nc2N1C1CCCC1 | 8.39

A: CC[C@@H]1C(=O)Nc2cnc(Nc3ccc(C(=O)NC4CCN(C)CC4)cc3OC)nc2N1C1CCCC1
B: CC[C@@H]1C(=O)N(C)c2cnc(N3CCc4cc(C(=O)NC5CCN(C)CC5)ccc43)nc2N1C1CCCC1
*Q* Endpoint returns whichever of A and B has the numerically higher pIC50. Refer to your chosen item by its label in the answer.
*A* B
(B: 7.70, A: 6.89)
